test system: Escherichia coli TOP10; experiment: shrunken log2 fold change of peptide-encoding DNA abundance (4.5 h post-induction vs induction); higher = less antimicrobial activity (less host growth inhibition); conditions: time post-induction: 4.5 h; library: site-saturation at positions 5, 18, 19, 20
# cutoff -0.1 applies to shrunken log2 fold change; >= gives label 1, < gives label 0

RRIRTRPPRLPRPRPRPEIIPRP : label 1
RRIRLRPPRLPRPRPRPGHRPRP : label 0
RRIRTRPPRLPRPRPRPFHQPRP : label 0
RRIRIRPPRLPRPRPRPKVFPRP : label 1
RRIRSRPPRLPRPRPRPLRRPRP : label 1
RRIRHRPPRLPRPRPRPDYLPRP : label 0
RRIRKRPPRLPRPRPRPNVKPRP : label 1
RRIRFRPPRLPRPRPRPHYVPRP : label 0
RRIRRRPPRLPRPRPRPLKAPRP : label 1
RRIRTRPPRLPRPRPRPQMSPRP : label 1
RRIRGRPPRLPRPRPRPEINPRP : label 1
RRIRTRPPRLPRPRPRPTQEPRP : label 1
RRIRKRPPRLPRPRPRPQYTPRP : label 0
RRIRSRPPRLPRPRPRPVFPPRP : label 0
RRIRFRPPRLPRPRPRPVCQPRP : label 1

###

# reported shrunken log2 fold change; entries follow
test system: Escherichia coli TOP10; test: shrunken log2 fold change of peptide-encoding DNA abundance (4.5 h post-induction vs induction); higher = less antimicrobial activity (less host growth inhibition); settings: time post-induction: 4.5 h; library: site-saturation at positions 5, 18, 19, 20;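 further: peptides expressed intracellularly from a pBAD plasmid library in pooled LB shake-flask culture, induced with 0.3% L-arabinose, DNA abundance read by NGS, three biological replicates, DESeq2 with apeglm shrinkage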
MEASUREMENT_KIND: shrunken log2 fold change

RRIRVRPPRLPRPRPRPYQWPRP : -0.175
RRIRDRPPRLPRPRPRPEASPRP : 0.447
RRIRGRPPRLPRPRPRPTAHPRP : 1.12
RRIRVRPPRLPRPRPRPPHGPRP : -0.317
RRIRPRPPRLPRPRPRPATPPRP : 0.216
RRIRLRPPRLPRPRPRPWHWPRP : 0.019
RRIRERPPRLPRPRPRPDKKPRP : 0.0282
RRIRRRPPRLPRPRPRPMEKPRP : 0.096
RRIRNRPPRLPRPRPRPCIPPRP : -0.0387
RRIRTRPPRLPRPRPRPINNPRP : -0.793
RRIRHRPPRLPRPRPRPISNPRP : -0.779
RRIRCRPPRLPRPRPRPDNNPRP : -0.661
RRIRARPPRLPRPRPRPLQQPRP : 0.752
RRIRCRPPRLPRPRPRPWNNPRP : -0.107
RRIRNRPPRLPRPRPRPTIEPRP : 0.0325
RRIRLRPPRLPRPRPRPLCGPRP : 0.161
RRIRRRPPRLPRPRPRPRQMPRP : 0.313
RRIRVRPPRLPRPRPRPKQFPRP : 0.109
RRIRYRPPRLPRPRPRPAYWPRP : -0.029
RRIRERPPRLPRPRPRPFHNPRP : -0.413
RRIRARPPRLPRPRPRPPAWPRP : 0.621
RRIRTRPPRLPRPRPRPEFEPRP : 0.0862
RRIRPRPPRLPRPRPRPAFLPRP : -0.0283
RRIRTRPPRLPRPRPRPATCPRP : 2.77
RRIRRRPPRLPRPRPRPELFPRP : 1.06
RRIRVRPPRLPRPRPRPAAKPRP : 0.348
RRIRFRPPRLPRPRPRPGLQPRP : -0.18
RRIRQRPPRLPRPRPRPMYSPRP : -0.746
RRIRSRPPRLPRPRPRPNMGPRP : -0.351
RRIRTRPPRLPRPRPRPAEDPRP : 0.17
RRIRSRPPRLPRPRPRPNKWPRP : -0.0551
RRIRFRPPRLPRPRPRPDYGPRP : -0.238
RRIRQRPPRLPRPRPRPGYLPRP : 0.0613
RRIRTRPPRLPRPRPRPKWNPRP : 0.0454
RRIRGRPPRLPRPRPRPNLWPRP : 0.671
RRIRDRPPRLPRPRPRPGINPRP : 0.0194
RRIRERPPRLPRPRPRPCLFPRP : -0.222
RRIRIRPPRLPRPRPRPLFHPRP : -0.779
RRIRFRPPRLPRPRPRPVYPPRP : -0.477
RRIRIRPPRLPRPRPRPHVHPRP : -0.165
RRIRCRPPRLPRPRPRPHFYPRP : -0.305
RRIRDRPPRLPRPRPRPHNHPRP : -0.612
RRIRERPPRLPRPRPRPTYTPRP : -0.756
RRIRDRPPRLPRPRPRPLEFPRP : -0.158
RRIRMRPPRLPRPRPRPDDDPRP : -0.00152
RRIRWRPPRLPRPRPRPIRFPRP : -0.0926
RRIRKRPPRLPRPRPRPANMPRP : -0.167
RRIRMRPPRLPRPRPRPQHMPRP : -0.355
RRIRDRPPRLPRPRPRPNQTPRP : 0.0331
RRIRPRPPRLPRPRPRPCSFPRP : -0.109
RRIRRRPPRLPRPRPRPNDTPRP : -0.115
RRIRQRPPRLPRPRPRPGKVPRP : -0.0155
RRIRERPPRLPRPRPRPNWNPRP : -0.236
RRIRWRPPRLPRPRPRPWNMPRP : -0.101
RRIRWRPPRLPRPRPRPDPCPRP : -0.026
RRIRGRPPRLPRPRPRPCQIPRP : -0.0259
RRIRYRPPRLPRPRPRPCWAPRP : -0.434
RRIRQRPPRLPRPRPRPSDHPRP : -0.298
RRIRLRPPRLPRPRPRPGDEPRP : 0.114
RRIRFRPPRLPRPRPRPAQLPRP : 0.36
RRIRHRPPRLPRPRPRPKCSPRP : -0.0294
RRIRGRPPRLPRPRPRPGPCPRP : 0.854
RRIRQRPPRLPRPRPRPWTEPRP : 0.0355
